System: A. niger
Assay: Minimum inhibitory concentration for fungi, tube dilution, A. niger (Table IV)
Details: Aspergillus niger, 48 h, read-out: Minimum Inhibitory Concentration, A. niger
Categorized via MIC: bottom bin = under 20 µg/mL, middle bin = from 20 µg/mL up to 100 µg/mL, top bin = 100 µg/mL and over

As a guide, the following entries are already answered.
INSERT INTO assay_data (compound, category_label) VALUES
  ('CC(N1CCN(CCCCCCN2CCCCC2)CC1)C(O)(Cc1ccccc1)Cc1ccccc1 (stereo not shown) [XX]', 'bottom bin'),
  ('CN1CCN(CCCCCCN2CCN(CCC(=Cc3ccccc3)Cc3ccccc3)CC2)CC1 [LXV]', 'bottom bin'),
  ('CC(C(=Cc1ccccc1)Cc1ccccc1)N1CCN(CCCl)CC1 (stereo not shown) [XLIV]', 'top bin'),
  ('CC(N1CCN(CCN2CCN(Cc3ccccc3)CC2)CC1)C(O)(Cc1ccccc1)Cc1ccccc1 (stereo not shown) [XII]', 'bottom bin'),
  ('CC(N1CCN(CCN2CCN(CCc3ccccc3)CC2)CC1)C(O)(Cc1ccccc1)Cc1ccccc1 (stereo not shown) [XIV]', 'bottom bin'),
  ('CC(C(=Cc1ccccc1)Cc1ccccc1)N1CCN(CCN(C)C)CC1 (stereo not shown) [XXVI]', 'bottom bin'),
  ('Cc1cccc(CC(O)(Cc2cccc(C)c2)C(C)N2CCN(C)CC2)c1 (stereo not shown) [IL]', 'middle bin'),
  ('CCCCCCCC[N+](C)(C)CCN1CCN(C(C)C(=Cc2ccccc2)Cc2ccccc2)CC1 (stereo not shown) [XLIII]', 'bottom bin');

Which class does CC(C(=Cc1ccccc1Cl)Cc1ccccc1Cl)N1CCN(CCN2CCN(C)CC2)CC1 (stereo not shown) [LXVI] fall in?
bottom bin

Then CC1CCCCN1CCN1CCN(C(C)C(=Cc2ccccc2)Cc2ccccc2)CC1 (stereo not shown) [XXXIII] ?
top bin

And the next one, CC(N1CCN(CCCN2CCCCC2)CC1)C(O)(Cc1ccccc1)Cc1ccccc1 (stereo not shown) [XIX] ?
middle bin

Same read-out for CC1CN(CCN2CCN(C(C)C(=Cc3ccccc3)Cc3ccccc3)CC2)CCO1 (stereo not shown) [XXXII] ?
top bin

Here is the next compound: CCN(CC)CCN1CCN(C(C)C(=Cc2ccccc2)Cc2ccccc2)CC1 (stereo not shown) [XXVII]
top bin

Do the same for CCN(CC)CCN1CCN(C(C)C(O)(Cc2ccccc2)Cc2ccccc2)CC1 (stereo not shown) [II] please
top bin

Input CC(C(=Cc1ccc(Cl)cc1)Cc1ccc(Cl)cc1)N1CCN(CCN2CCN(C)CC2)CC1 (stereo not shown) [XLII]
bottom bin

Ok, now OC(CCN1CCN(CCN2CCCCC2)CC1)(Cc1ccccc1)Cc1ccccc1 [LX]
middle bin

Same again, this time with CCC(N1CCN(C)CC1)C(O)(Cc1ccccc1)Cc1ccccc1 (stereo not shown) [LVIII]
top bin

Another compound to check: CNCCCCCCN1CCN(C(C)C(=Cc2ccccc2)Cc2ccccc2)CC1 (stereo not shown) [XLI]
bottom bin

// next record CCCCCCCCNCCCCCCN1CCN(C(C)C(=Cc2ccccc2)Cc2ccccc2)CC1 (stereo not shown) [XL]
bottom bin

====

Tested on: Candida albicans
Assay: Agar well inhibition zone test against fungi, Candida albicans (Table II)
Conditions: quantity per well giving inhibition zone (500, 50, 5 μg tested); Sabouraud agar, 28°, 48 hours
Recorded Inhibition Area at μg, Cand. albicans for the following compounds
Please respond with the number in µg and leave the unit unwritten.

INSERT INTO results (compound, numeric_result) VALUES
  ('CCN(CCN1CCN(C(C)C(O)(Cc2ccccc2)Cc2ccccc2)CC1)Cc1ccccc1 (centres unmarked) [XVII]', 500),
  ('CNCCN1CCN(C(C)C(=Cc2ccccc2)Cc2ccccc2)CC1 (centres unmarked) [XXV]', 5),
  ('CC(C(=Cc1ccccc1)Cc1ccccc1)N1CCN(CCN2CCN(Cc3ccccc3)CC2)CC1 (centres unmarked) [XXXVII]', 5);

Please give the measured Inhibition Area at μg, Cand. albicans for this compound: CC1CCN(CCN2CCN(C(C)C(=Cc3ccccc3)Cc3ccccc3)CC2)CC1 (centres unmarked) [XXXV]
50

Now try CCCCCCCC[N+](C)(C)CCN1CCN(C(C)C(=Cc2ccccc2)Cc2ccccc2)CC1 (centres unmarked) [XLIII] .
5

Source: patent US3947411A
